The reported measurements were obtained from the supplement of paper PMC9732359.

Test: protein stability index of a GFP-peptide fusion (yeast GPS) (PSI 1-4); higher = more stable; sorted into four equal gates, so the index is relative within each strain
Details: pdr5∆
Kind request: treat 3 as inclusive, so protein stability index at 3 or higher is true, anything lower is false.

macromolecule-sequence: EWYLSHLCSGILSSVNR [SRB8]
class-assignment: false
--
macromolecule-sequence: PRIQRADPVALYLGLKR [RPB5]
class-assignment: false
--
macromolecule-sequence: IPSIPNPIANHTVTNSP [SNF5]
class-assignment: false
--
macromolecule-sequence: ATFLKDDLPYYVNALAD [QCR2]
class-assignment: false
--
macromolecule-sequence: SLLNLLNISPFTFGLTV [RPP0]
class-assignment: false
--
macromolecule-sequence: PAIPPVIDLEKIKFDES [BRR2]
class-assignment: false
--
macromolecule-sequence: VVFAVEKLITSKLLVPQ [PRE10]
class-assignment: false
--
macromolecule-sequence: SDPESERPAIEFETPTF [RPN14]
class-assignment: true
--
macromolecule-sequence: GILLETISVPQIRDVME [RRP6]
class-assignment: false
--
macromolecule-sequence: WQQVTALAQQKLLTPQD [GAL11]
class-assignment: false
--
macromolecule-sequence: IITNINAIFLSSEQDYS [YCG1]
class-assignment: false
--
macromolecule-sequence: EELFTQLFHSMSIVFGD [UBP6]
class-assignment: true
--
macromolecule-sequence: NLGEYYAQIGDKDNAEK [RPN7]
class-assignment: false
--
macromolecule-sequence: KTLTGKTITLEVESSDT [RPS31]
class-assignment: false
--
macromolecule-sequence: GLESQIQEIKESVELPL [RPT2]
class-assignment: false
--
macromolecule-sequence: KFGYILCVLDYDNIDIQ [RPB7]
class-assignment: false
--
macromolecule-sequence: RRKTTKQNSSSDINQND [YDL088C/ASM4]
class-assignment: true
--
macromolecule-sequence: HTLCNRCGRRSFHVQKK [RPL37A]
class-assignment: false
--
macromolecule-sequence: TAELIKELKEKEAAESP [PUP2]
class-assignment: true
--
macromolecule-sequence: IKNIGKSLKNNFYRPLL [YML103C/NUP188]
class-assignment: false
--
macromolecule-sequence: NLHAEGWPKLQLGPQTP [ECM29]
class-assignment: false
--
macromolecule-sequence: VINLKQIAKFVVGLGER [RPT1]
class-assignment: true
--
macromolecule-sequence: VKNLSLMSCISVGTDPM [RPB2]
class-assignment: false
--
macromolecule-sequence: NHFIFNVESAGAMTPEE [RPC40]
class-assignment: false
--
macromolecule-sequence: RLQQGRRLPMTMFTAEQ [SNF2]
class-assignment: true
--
macromolecule-sequence: YSIEMKPYSGKLLKVCL [ECM29]
class-assignment: false
--
macromolecule-sequence: NMTTIADRNDDDEGSFA [SRB6]
class-assignment: true
--
macromolecule-sequence: NENFRLVYDVKGRFAVH [RPS4A]
class-assignment: false
--
macromolecule-sequence: SNKPIFLFAPELGAINL [SWI1]
class-assignment: false
--
macromolecule-sequence: FYVQDVYKDNLSFIQVR [RPO31]
class-assignment: false
--
macromolecule-sequence: EALLRSLLDAEEERRKK [SNF2]
class-assignment: false
--
macromolecule-sequence: LPDELTLSYDDISAAIV [DLS1]
class-assignment: false
--
macromolecule-sequence: SIFAMGLCGAGTNNARL [RPN1]
class-assignment: false
--
macromolecule-sequence: RLWLKKVMEEEEQDCKC [POP8]
class-assignment: false
--
macromolecule-sequence: KPMNKGQHKNNTSLNIN [SWP82]
class-assignment: false
--
macromolecule-sequence: AQLAKAKTELNEVSLAI [SMC2]
class-assignment: false
--
macromolecule-sequence: AEQLKISLSVHTLALEF [RRP46]
class-assignment: false
--
macromolecule-sequence: GWSLVGRILQNLLHSYM [YML103C/NUP188]
class-assignment: false
--
macromolecule-sequence: LSGNSVEDVSQNAADLQ [RPL9A]
class-assignment: true
--
macromolecule-sequence: MLGRAGRPRYDTFGEGI [BRR2]
class-assignment: false
--
macromolecule-sequence: PTLAGMAQRTLKNKYES [FAS2]
class-assignment: false
--
macromolecule-sequence: FKNMGNTCYLNATLQAL [UBP6]
class-assignment: false
--
macromolecule-sequence: LIAEESEDDSESGKVFI [RPB2]
class-assignment: true
--
macromolecule-sequence: VQLSPSNPQHIIQPFLD [RGR1]
class-assignment: false
--
macromolecule-sequence: SSYDLLFNESFIMASVG [SRP72]
class-assignment: false
--
macromolecule-sequence: RMPIMLRSNKCILYDAD [RET1]
class-assignment: false
--
macromolecule-sequence: APVEVQEDFEVVEEFTP [RPS5]
class-assignment: true
--
macromolecule-sequence: NFILEVFGTIIPKISDY [YJL039C/NUP192]
class-assignment: false
--
macromolecule-sequence: QQFNLHEILSEPAIEEE [MED1]
class-assignment: true
--
macromolecule-sequence: ETLEHNPVALEQKLVDL [BRR2]
class-assignment: false
--
macromolecule-sequence: LFKKITNVNPSKNFNVI [YML103C/NUP188]
class-assignment: false
--
macromolecule-sequence: GTQQSNMYTSTQKTELE [SIR4]
class-assignment: true

---

Test: protein stability index of a GFP-peptide fusion (yeast GPS) (PSI 1-4); higher = more stable; sorted into four equal gates, so the index is relative within each strain
Settings: ubr1∆
Reported protein stability index values are given for each entry in this list.

macromolecule-sequence: ARWPAKSVKFVQGLLQN [RPL17A]
protein stability index: 2.13
--
macromolecule-sequence: FKQIKSADCELLGIDAT [RPO31]
protein stability index: 2.08
--
macromolecule-sequence: LDRPEYLKKREAGEVKD [RPL10]
protein stability index: 3.42
--
macromolecule-sequence: SQPKIGYGSNKKTKFLS [RPL32]
protein stability index: 1.38
--
macromolecule-sequence: EKASRQQRKQKKNRDKK [RPS24A]
protein stability index: 3.32
--
macromolecule-sequence: SNAAGADDAISMHLLKD [SRB8]
protein stability index: 2.76
--
macromolecule-sequence: VVSTTAVIESVVNQPTG [FAS1]
protein stability index: 2.1
--
macromolecule-sequence: PPGYEIEELDNPMVPSS [PRP8]
protein stability index: 2.82
--
macromolecule-sequence: RPPVKAILQEKILSILN [ECM29]
protein stability index: 2
--
macromolecule-sequence: SGEDTNVGLPILKSLKN [YOR098C/NUP1]
protein stability index: 3.28
--
macromolecule-sequence: SLRETNTTDPLGHTKAA [SIR2]
protein stability index: 3.2
--
macromolecule-sequence: RAKAEAAEFRYKYGYDM [SCL1]
protein stability index: 2.57
--
macromolecule-sequence: IEIKISDPLTVFSESCS [SNU114]
protein stability index: 2.45
--
macromolecule-sequence: FFDGSASSTPIPVLGKP [YOR098C/NUP1]
protein stability index: 2.67

---

Assay: protein stability index of a GFP-peptide fusion (yeast GPS) (PSI 1-4); higher = more stable; sorted into four equal gates, so the index is relative within each strain
Conditions: ubr1∆
recorded-metric: protein stability index

macromolecule-sequence: IVDDKQEMIDILETIFR [DIB1]
result-value: 2.75

macromolecule-sequence: DYNFKYGIPLEFYNEMH [PRP8]
result-value: 3.15

macromolecule-sequence: AADVSAVDAKQLAQIRQ [YML103C/NUP188]
result-value: 2.5

macromolecule-sequence: SKKRQAEKLVPLPICHA [YML031W/NDC1]
result-value: 2.39

macromolecule-sequence: CELQVETYGSMEMSEKI [RPN5]
result-value: 2.84

macromolecule-sequence: DDSFSLLRIQMLLCVSY [PCI8]
result-value: 2.42

macromolecule-sequence: LRNWEELNIIPRDLLRV [PRP28]
result-value: 1.07

macromolecule-sequence: NSIDINYKGLPKKYKEN [SMC1]
result-value: 3.36

macromolecule-sequence: CLFENDLQRLKPLGLDR [ITC1]
result-value: 3.09

macromolecule-sequence: STTMDGANDLGFTASVS [MED1]
result-value: 2.99

macromolecule-sequence: FTAGARAKIVKAGGECI [RPL18A]
result-value: 1.13

macromolecule-sequence: ISVGESGDRLTRASKVL [RPL11A]
result-value: 3.4

macromolecule-sequence: GVANTDTAGEESQQQDE [SWI3]
result-value: 3.43

macromolecule-sequence: NVDVCVMEIGKDAEYLR [PUP1]
result-value: 2.39

macromolecule-sequence: QKTRVKLLFDHDELDMN [ESC2]
result-value: 3.12

macromolecule-sequence: VLVGSCAYTGTGDVLLI [RPN1]
result-value: 3.1

macromolecule-sequence: RQEVTKFAKANIGYVMG [RPN4]
result-value: 1.14

macromolecule-sequence: TTQRRYEKAQKDLENAQ [SMC1]
result-value: 3.14

macromolecule-sequence: FMDVITLDATNENFRLV [RPS4A]
result-value: 3

macromolecule-sequence: TTARNDLGVVFARAANG [CSL4]
result-value: 2.39

macromolecule-sequence: ANDHDESIDVDMDAESN [SMC3]
result-value: 1.81

macromolecule-sequence: DSEKRNKYAAMLTSENA [RRP45]
result-value: 2.92

macromolecule-sequence: RFEVINNETEQLKAEEK [SMC1]
result-value: 2.6

macromolecule-sequence: ITLRTSGELLQGIVRVY [MCD1]
result-value: 3.12

macromolecule-sequence: LDTFIKIDGNPDELIKA [PRE5]
result-value: 3.36

macromolecule-sequence: TVMFFYHNKHMMCDFGT [DIB1]
result-value: 2.54

macromolecule-sequence: KNFKGIEEIEYNVKNII [PCI8]
result-value: 3.05

macromolecule-sequence: TYDMVGGLTKQIKEIKE [RPT6]
result-value: 2.56

macromolecule-sequence: PEEEAAIRRENEWAEDR [SKP1]
result-value: 3.28

macromolecule-sequence: FSQFWYWFPLAHFLSLS [RPN2]
result-value: 1.19

macromolecule-sequence: KEALLGQLLKDHLIIEP [ARP9]
result-value: 2.45

macromolecule-sequence: SGMGPDYRVLVDKSRKV [PRE8]
result-value: 2.98

macromolecule-sequence: SNSAGTSLFGSSSAQQT [YJL041W/NSP1]
result-value: 3.17

macromolecule-sequence: PSVNDFVIGVIIGTFSD [RRP40]
result-value: 2.56

macromolecule-sequence: TAKKDMSSTTPKLESVK [SNF12]
result-value: 3.27

macromolecule-sequence: EDEEEEEEVTDQLEDLR [QCR6]
result-value: 3.25

macromolecule-sequence: NSTSKNTLLQQQNYSKV [SWI1]
result-value: 2.68

macromolecule-sequence: GDRGALARASGNYVIII [RPL2A]
result-value: 2.75

macromolecule-sequence: IKQTFKNDLFVIWSEDN [RPO21]
result-value: 2.36

macromolecule-sequence: KKHLKRLAAPHHWLLDK [RPS4A]
result-value: 3.01

macromolecule-sequence: WRFHTPQKYVLHPQLHE [SIN4]
result-value: 1.97

macromolecule-sequence: PDKDYLLSIPISCPLIG [FAS1]
result-value: 1.07

macromolecule-sequence: KLLIQIDELSNGQRSNS [SMC1]
result-value: 3.11

macromolecule-sequence: PRLEKLINEILLKSNDP [RGR1]
result-value: 1.86

macromolecule-sequence: QLTPQQQQLVNQMKVAP [GAL11]
result-value: 2.79

macromolecule-sequence: LKWVAVVPDLGHLNGHT [SSN2]
result-value: 3.16

macromolecule-sequence: DEIDAALDFRNVSIVAN [SMC4]
result-value: 1.54

macromolecule-sequence: GNPLSIGTLEEIIDDDH [RPT2]
result-value: 3.24

macromolecule-sequence: NSRGKFDDACNQIWNIA [SSN2]
result-value: 3.09

macromolecule-sequence: LMTKLNSFKLFKAEKLQ [RPC17]
result-value: 1.75

macromolecule-sequence: YQSSVQEPFLNSSNYAE [PRP8]
result-value: 2.9

macromolecule-sequence: FSKKGNEPLSEIEIEGV [YAR002W/NUP60]
result-value: 3.15

macromolecule-sequence: SEQKMKEDADLKRMEIL [SIR4]
result-value: 3.28

macromolecule-sequence: DVDPIELVVFLPALCKK [RPL8A]
result-value: 3.03

macromolecule-sequence: KKIREIYRYDEMSNKVL [BRR2]
result-value: 3.08

macromolecule-sequence: EQLSPQDVLQMLGRAGR [BRR2]
result-value: 3.36

macromolecule-sequence: TLLSPKDNGMLIIDGQI [RPO21]
result-value: 1.78

macromolecule-sequence: KPAFSFGAKSDEKKDSD [YJL041W/NSP1]
result-value: 3.46

macromolecule-sequence: EIKDAETSCDNYHPMNI [SMC4]
result-value: 2.98

macromolecule-sequence: FVSNMGFDIQKSCEPVS [SIR4]
result-value: 2.12

macromolecule-sequence: FLNTPNNNINENELFND [SSN2]
result-value: 2.88
